# Tested on: A549
# Assay overview: Growth inhibition against human A549 cells after 48 hrs by MTT assay
# Format: functional, cell-based
# Condition summary: A549, 48 h
Readout type: IC50

Task item: Look at this compound and give its reported IC50. `COc1cc([C@@H](O)[C@@H](CO)Oc2ccc(/C=C/C=O)cc2OC)ccc1O`
Reply: 25.5 µM

Task item: Next up: `COc1cc([C@H](O)[C@@H](CO)Oc2ccc(C=O)cc2OC)ccc1O`
Reply: > 50 µM

Task item: One more compound: `COc1cc([C@@H](O)[C@@H](CO)Oc2ccc(C=O)cc2OC)ccc1O`
Reply: > 50 µM

Task item: What do we get for `COc1cc([C@H](O)[C@@H](CO)Oc2ccc(/C=C/C=O)cc2OC)ccc1O` ?
Reply: 33.6 µM

Task item: Now this one: `COC/C=C/c1ccc(O[C@H](CO)[C@H](OC)c2ccc(O)c(OC)c2)c(OC)c1`
Reply: > 50 µM

Task item: Also check `COc1cc([C@@H](OC)[C@@H](CO)Oc2ccc(/C=C/C=O)cc2OC)ccc1O`
Reply: > 50 µM
